- procedureText: Cytotoxicity assay (AlamarBlue)
- setupConditions: human, A549 cells
Assign CC50 at 48 h to each entry below.
One number for each entry, in µM.

compound: CC(C)[C@H](NC(=O)c1cc(Cl)ccc1O)C(=O)Nc1ccc([N+](=O)[O-])cc1Cl [Compound 58]
attributeMeasured: CC50 at 48 h
unitAnnotation: µM
reportedResult: 200
--
compound: O=C(Nc1cc(F)cc(C(F)(F)F)c1)c1cc(Cl)ccc1O [Compound 17]
attributeMeasured: CC50 at 48 h
unitAnnotation: µM
reportedResult: 120
--
compound: CC(C)(C)OC(=O)N1CCC(CNc2ccc(NC(=O)c3cc(Cl)ccc3O)c(Cl)c2)CC1 [Compound 126]
attributeMeasured: CC50 at 48 h
unitAnnotation: µM
reportedResult: 95

Request: Quick one: CC50 at 48 h of Nc1ccn(C[C@@H](CO)OCP(=O)(O)O)c(=O)n1 [cidofovir, reference compound] ?
Response: 50.1
